For each record, write down the corresponding RP-LC retention time.
- test.description: gradient 5% acetonitrile 3 min, to 50% in 2 min, to 85% in 15 min, held 3 min, 100 µL/min
- particulars: column: Zorbax Extend-C18 2.1 x 50 mm; eluents: water / acetonitrile, 0.1% formic acid
Give bare numbers, in s.

Prompt: Please list RP-LC retention time recorded for the molecule COc1ccc(CC(=O)Nc2cnn(-c3ncc(N(C)C)cn3)c2)c(Cl)c1
Completion: 753

Prompt: Please list RP-LC retention time recorded for the molecule O=c1ccn(-c2cccc(F)c2)nc1-c1nc(-c2ccc(Br)cc2)no1
Completion: 1000

Moving on to the next molecule.
Prompt: Please list RP-LC retention time recorded for the molecule O=C(COc1ccc(F)cc1)N1[C@H]2CC[C@@H]1c1cnc(-c3ccc(F)cc3)nc1C2
Completion: 760

---

- test.description: gradient 5% acetonitrile 3 min, to 50% in 2 min, to 85% in 15 min, held 3 min, 100 µL/min
- particulars: column: Zorbax Extend-C18 2.1 x 50 mm; eluents: water / acetonitrile, 0.1% formic acid
readout: RP-LC retention time (s)
One number for each entry, in s.

Solved entries (count: 8):
Prompt: Please list RP-LC retention time recorded for the molecule Cc1cc2nn(CC(=O)Nc3ccc(F)c(F)c3)c(=O)n2c(Nc2ccccc2)n1
Completion: 967

Prompt: Please list RP-LC retention time recorded for the molecule CN(C)c1ccc(CNC(=O)c2cc3c(=O)n(C)ccc3n2C)cc1
Completion: 579

Prompt: Please list RP-LC retention time recorded for the molecule COc1ccc2[nH]c(=O)c(CCC(=O)NCCOc3ccccc3OC)cc2c1
Completion: 681

Prompt: Please list RP-LC retention time recorded for the molecule COC[C@@H]1CN(C(=O)c2cc(Cl)ccc2F)C[C@H]1C(N)=O
Completion: 611

Prompt: Please list RP-LC retention time recorded for the molecule CCc1noc2nc(C)n(CC(=O)NCCc3ccc(C)cc3)c(=O)c12
Completion: 851

Prompt: Please list RP-LC retention time recorded for the molecule CN(CCc1noc(-c2ccccc2)n1)C(=O)NCCc1ccccc1
Completion: 896

Prompt: Please list RP-LC retention time recorded for the molecule N[C@@H](CC(=O)N1CCn2c(nnc2C(F)(F)F)C1)Cc1cc(F)c(F)cc1F
Completion: 675

Prompt: Please list RP-LC retention time recorded for the molecule CCC1Oc2ccc(S(=O)(=O)N3CCC(C(=O)Nc4ccc(OC)cc4)CC3)cc2NC1=O (stereo unspecified)
Completion: 861

Would you mind listing RP-LC retention time for each of the following molecules?
1. CC(C)NC(=O)C1CCCN(C(=O)Nc2ccc(NC(=O)Nc3ccccc3F)cc2)C1 (stereo unspecified)
2. O=C(Nc1ccc(F)cc1)N1CCC(N2CC(F)(F)C[C@H]2COCC2CC2)CC1
3. O=C(NC1CCCC1)c1ccc2c(c1)CCN2C(=O)C1CC1

Completion:
735
699
751

---

- test.description: gradient 5% acetonitrile 3 min, to 50% in 2 min, to 85% in 15 min, held 3 min, 100 µL/min
- particulars: column: Zorbax Extend-C18 2.1 x 50 mm; eluents: water / acetonitrile, 0.1% formic acid
readout: RP-LC retention time (s)
Numbers only, in s.

Solved entries (count: 2):
Prompt: Please list RP-LC retention time recorded for the compound CCCCS(=O)(=O)NCC#CCN1CCc2ccccc2C1
Completion: 564

Prompt: Please list RP-LC retention time recorded for the compound COCCN(Cc1ccco1)C(=O)Cn1nc(Cc2cccnc2)c2ccccc2c1=O
Completion: 613

Moving on to the next compound.
Prompt: Please list RP-LC retention time recorded for the compound O=C(NCc1ccc(F)cc1F)c1c(O)c2cccnc2n(-c2cccc(F)c2)c1=O
Completion: 1190
